Recorded Ki50, one value per entry.
biological target: Proteasome component C5 (Homo sapiens) (UniProt P20618); test: Inhibition of 20s constitutive proteasome caspase-like activity in human erythrocytes using […] as substrate pretreated for 2 hrs followed by substrate addition measured after 10 mins by luminescence assay; type: cell-based
Sequence (P20618 whole entry): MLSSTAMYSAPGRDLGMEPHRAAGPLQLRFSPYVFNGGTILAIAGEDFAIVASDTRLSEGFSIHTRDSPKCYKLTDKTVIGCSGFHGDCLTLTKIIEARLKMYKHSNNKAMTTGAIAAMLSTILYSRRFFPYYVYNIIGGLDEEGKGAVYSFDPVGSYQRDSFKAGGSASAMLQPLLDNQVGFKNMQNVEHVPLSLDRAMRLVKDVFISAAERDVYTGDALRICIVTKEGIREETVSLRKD

Examples with their reported Ki50 follow.
COc1ccc(C[C@H](NC(=O)[C@H](C)NC(=O)CN2CCOCC2)C(=O)N[C@@H](Cc2ccccc2)C(=O)[C@]2(C)CO2)cc1 ... 2.07 µM
CC(C)Cc1ccc([C@H](C)C(=O)N[C@H](C(=O)N[C@H]2CSCCNC(=O)/C=C/[C@H](C)NC2=O)C(C)C)cc1 ... > 10 µM
CC(C)[C@H](NC(=O)c1cnccn1)C(=O)N[C@H]1CSCCNC(=O)/C=C/[C@H](C)NC1=O ... > 10 µM

[ask] # assay system Proteasome component C5 (Homo sapiens) (UniProt P20618): give Ki50 of "CC(C)C[C@H](NC(=O)[C@H](Cc1ccccc1)NC(=O)c1cnccn1)B(O)O"
[reply] 0.02 µM

[ask] Answer with Ki50 of "CCCCCCCCCCCCNC(=O)N[C@H](C(=O)N[C@H]1CSCCNC(=O)/C=C/[C@H](C)NC1=O)C(C)C" measured for Proteasome component C5 (Homo sapiens) (UniProt P20618).
[reply] > 10 µM

The reported measurements were obtained from ChEMBL document CHEMBL4184191.
